These data points were gathered from patent US8338565B2.

target: TNFα / TNFα receptor (TNFα R1/Fc) (Homo sapiens, UniProt P01375); construct: purchased R&D Systems; assay: Inhibition of binding of TNFα to the TNFα receptor (plate ELISA competition); settings: Table 2; read-out: Activity (IC50, inhibition of TNFα binding to TNFα R1/Fc)
Sequence (P01375 77-233 limits assumed, species assumed): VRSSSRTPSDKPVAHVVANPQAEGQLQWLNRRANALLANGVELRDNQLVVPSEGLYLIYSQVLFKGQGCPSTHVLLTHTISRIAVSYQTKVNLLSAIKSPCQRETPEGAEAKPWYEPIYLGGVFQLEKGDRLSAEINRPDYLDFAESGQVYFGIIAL
pIC50: −log10 of the molar value. Numbered stars: 1 amine (or outer) side, 2 acyl side, 3 side chain; on linkers, the order of the positions; unused ones are H or OH. Bridge positions count the residues as written; N and C are the ends. Square brackets hold non-standard residues; d marks the D form. Peptide text beside a SMILES is read from it. Tartaroyl(2R,3R-(OAc)2) = CC(=O)O[C@@H](C(=O)[*:1])[C@@H](OC(C)=O)C(=O)[*:2]; Phe(4-tBu) = CC(C)(C)c1ccc(C[C@H](N)C(=O)O)cc1; dPhe(4-NH2) = Nc1ccc(C[C@@H](N)C(=O)O)cc1; dPhe(4-Br) = N[C@H](Cc1ccc(Br)cc1)C(=O)O; Phe(4-NH2) = Nc1ccc(C[C@H](N)C(=O)O)cc1; 2Thi = N[C@@H](Cc1cccs1)C(=O)O; d2Thi = N[C@H](Cc1cccs1)C(=O)O; Suc = O=C(CCC(=O)[*:2])[*:1]
Measured Quantity: pIC50

Q: Query the reported pIC50 for TNFα / TNFα receptor (TNFα R1/Fc) (Homo sapiens, UniProt P01375); item: CC(C)(C)c1ccc(C[C@@H]2NC(=O)[C@@H](Cc3cccs3)NC(=O)CCC(=O)Nc3ccc(cc3)C[C@@H](C(=O)O)NC(=O)[C@@H](Cc3ccccc3)NC2=O)cc1 [Compound 90] ([d2Thi][Phe(4-tBu)][dF][Phe(4-NH2)]-OH; linker N-4 via Suc)
A: < 4.00

Q: Query the reported pIC50 for TNFα / TNFα receptor (TNFα R1/Fc) (Homo sapiens, UniProt P01375); item: COC(=O)[C@H](CC(=O)O)NC(=O)[C@@H]1Cc2ccc(cc2)OCC(=O)N[C@@H](Cc2cccs2)C(=O)N[C@H](Cc2ccc(-c3ccccc3)cc2)C(=O)N[C@@H](Cc2ccccc2)C(=O)N1 [Compound 388]
A: > 5.00

Q: Query the reported pIC50 for TNFα / TNFα receptor (TNFα R1/Fc) (Homo sapiens, UniProt P01375); item: CC(=O)O[C@H]1C(=O)Nc2ccc(cc2)C[C@H](C(=O)N[C@@H](Cc2ccccc2)C(=O)O)NC(=O)[C@H](Cc2ccccc2)NC(=O)[C@@H](Cc2ccc(Br)cc2)NC(=O)[C@H](Cc2cccs2)NC(=O)[C@@H]1OC(C)=O [Compound 417] ([2Thi][dPhe(4-Br)]F[dPhe(4-NH2)]F-OH; linker N-4 via Tartaroyl(2R,3R-(OAc)2))
A: < 4.00

----------
Each record here notes measured pIC50.
target: TNFα / TNFα receptor (TNFα R1/Fc) (Homo sapiens); construct: purchased R&D Systems; test: Inhibition of binding of TNFα to the TNFα receptor (plate ELISA competition); conditions: Activity (IC50, inhibition of TNFα binding to TNFα R1/Fc), Table 2
pIC50: −log10 of the molar value.

>  <Compound>
O=C1COc2ccc(cc2)C[C@@H](C(=O)N[C@@H](CCc2ccccc2)C(=O)O)NC(=O)[C@@H](CCc2ccccc2)NC(=O)[C@H](Cc2ccc(-c3ccccc3)cc2)NC(=O)[C@@H](Cc2cccs2)N1 [Compound 320]

>  <pIC50>
> 5.00

$$$$

Q: If you can, please state the reported pIC50 value of O=C1COc2ccc(cc2)C[C@@H](C(=O)N[C@H](Cc2ccccc2)C(=O)O)NC(=O)[C@H](Cc2cccs2)NC(=O)[C@@H](Cc2ccc(-c3ccccc3)cc2)NC(=O)[C@H](Cc2cccs2)N1 [Compound 588] .
A: > 5.00

Q: If you can, please state the reported pIC50 value of O=C1COc2ccc(cc2)C[C@@H](C(=O)NC2(C(=O)O)CC2)NC(=O)[C@@H](CCc2ccccc2)NC(=O)[C@H](Cc2ccc(-c3ccccc3)cc2)NC(=O)[C@@H](Cc2cccs2)N1 [Compound 299] .
A: > 5.00
